Reference source for all entries: ChEMBL document CHEMBL3727358

Item-by-item account of pIC50
Test system: 6-phosphofructo-2-kinase/fructose-2,6-bisphosphatase 3 (Homo sapiens)
Assay explanation: Inhibition of iPFK2 (unknown origin) assessed as reduction in enzyme-mediated fructose-6-phosphate phosphorylation by measuring ATP consumption incubated for 3 hrs by luciferase-luciferin-coupled chemiluminescence assay
pIC50: −log10 of the molar value.

Compound | pIC50
Cc1nc(N[C@@H]2CCCc3ccccc32)cc(-c2ccc(C)c(O)c2)n1 | 6.30
CCC(Nc1cc(-c2cccc(OC)c2)nc(C)n1)c1cccc(OC)c1 (stereo unspecified) | < 6.00
COc1cccc(-c2cc(Nc3cccc4ccccc34)nc(C)n2)c1 | < 6.00
Cc1nc(NC(C)c2cccc(C(=N)N)c2)cc(-c2ccc3ncsc3c2)n1 (stereo unspecified) | 6.30
COc1cccc([C@H](C)Nc2cc(-c3ccccc3F)nc(C)n2)c1 | < 6.00
Cc1nc(NC(C)c2cccc(N3CCOCC3)c2)cc(-c2ccc3ncsc3c2)n1 (stereo unspecified) | 6.30
Cc1nc(N[C@H](C)c2cccc(-c3cnn(C)c3)c2)cc(-c2ccc3occ(C)c3c2)n1 | 6.30
Cc1nc(N[C@@H]2CCCc3ccccc32)cc(-c2ccccc2F)n1 | < 6.00
Cc1nc(NC(C)c2ccc(F)c(Br)c2)cc(-c2ccc3occ(C)c3c2)n1 (stereo unspecified) | < 6.00
Cc1nc(NC(C)c2cccc(-c3cccc(F)c3)c2)cc(-c2ccc3ncsc3c2)n1 (stereo unspecified) | < 6.00
Cc1nc(N[C@H](C)c2cccc(-n3cnnn3)c2)cc(-c2ccc3occ(C)c3c2)n1 | 6.30
COc1cccc([C@H](C)Nc2cc(-c3cccnc3)nc(C)n2)c1 | < 6.00
Cc1nc(NC(C)c2cccc(OCC(O)CF)c2)cc(-c2ccc3ncsc3c2)n1 (stereo unspecified) | 6.30
COc1cccc(C(CCC#N)Nc2cc(-c3ccc4ncsc4c3)nc(C)n2)c1 (stereo unspecified) | < 6.00
Cc1nc(N[C@@H]2CCCc3ccccc32)cc(-c2ccccc2Cl)n1 | < 6.00
CCOc1cccc(-c2cc(N[C@@H]3CCCc4ccccc43)nc(C)n2)c1 | < 6.00
Cc1nc(N[C@@H]2CCCc3ccccc32)cc(-c2cccc3cc[nH]c23)n1 | < 6.00
Cc1nc(NC(C)c2cccc(-c3ccoc3)c2)cc(-c2ccc3ncsc3c2)n1 (stereo unspecified) | < 6.00
CCN(CC)C(=O)COc1cccc(C(C)Nc2cc(-c3cccc(OC)c3F)nc(C)n2)c1 (stereo unspecified) | < 6.00
Cc1nc(N[C@@H]2CCCc3ccccc32)cc(-c2cccnc2)n1 | < 6.00
COc1cccc([C@H](C)Nc2cc(-c3cccc(C)c3)nc(C)n2)c1 | 6.30

* * *

Test system: 6-phosphofructo-2-kinase/fructose-2,6-bisphosphatase 3 (Homo sapiens, UniProt Q16875)
Sequence (Q16875 whole entry): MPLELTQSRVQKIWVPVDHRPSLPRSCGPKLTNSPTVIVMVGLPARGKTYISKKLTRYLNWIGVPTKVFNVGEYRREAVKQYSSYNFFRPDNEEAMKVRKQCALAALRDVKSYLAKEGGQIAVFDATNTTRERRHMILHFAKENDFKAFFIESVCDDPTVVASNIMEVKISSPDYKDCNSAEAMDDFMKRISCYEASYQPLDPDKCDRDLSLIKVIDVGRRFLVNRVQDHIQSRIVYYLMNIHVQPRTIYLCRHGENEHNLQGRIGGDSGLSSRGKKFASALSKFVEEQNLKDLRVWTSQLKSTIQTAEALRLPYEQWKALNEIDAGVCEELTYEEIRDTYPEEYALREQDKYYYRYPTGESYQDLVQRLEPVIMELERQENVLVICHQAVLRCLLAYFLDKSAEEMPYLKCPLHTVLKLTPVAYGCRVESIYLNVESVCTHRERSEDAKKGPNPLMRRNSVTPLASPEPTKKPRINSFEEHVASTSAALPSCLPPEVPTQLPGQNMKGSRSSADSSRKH
Assay explanation: Inhibition of iPFK2 (unknown origin) assessed as reduction in enzyme-mediated fructose-6-phosphate phosphorylation by measuring ATP consumption incubated for 3 hrs by luciferase-luciferin-coupled chemiluminescence assay
IC50 listing for selected compounds.

Compound | IC50
CCc1cccc(-c2cc(N[C@@H]3CCCc4ccccc43)nc(C)n2)c1 | > 1000 nM
Cc1nc(NCc2cc(Br)ccc2F)cc(-c2ccc3ncsc3c2)n1 | > 1000 nM
Cc1cc(-c2cc(N[C@@H]3CCCc4ccccc43)nc(C)n2)ccn1 | > 1000 nM
CNC(=O)COc1cccc(C(C)Nc2cc(-c3ccc4c(c3)OCO4)nc(C)n2)c1 (centres undefined) | 500 nM
Cc1nc(NC(C)c2cccc(OCC(=O)O)c2)cc(-c2ccc3ccn(C)c3c2)n1 (centres undefined) | 500 nM
Cc1nc(N[C@@H]2CCCc3ccccc32)cc(-c2ccc(OC(F)(F)F)cc2)n1 | > 1000 nM
Cc1nc(NC2Cc3ccccc3C2)cc(-c2ccc3ncsc3c2)n1 | 500 nM
CCc1coc2ccc(-c3cc(NC(C)c4cccc(OCc5cc(C)nn5C)c4)nc(C)n3)cc12 (centres undefined) | > 1000 nM
Cc1nc(NCC2CCCNC2)cc(-c2ccc3ncsc3c2)n1 (centres undefined) | > 1000 nM

* * *

Each entry below carries its recorded IC50.
Test system: 6-phosphofructo-2-kinase/fructose-2,6-bisphosphatase 3 (Homo sapiens)
Assay explanation: Inhibition of iPFK2 (unknown origin) assessed as reduction in enzyme-mediated fructose-6-phosphate phosphorylation by measuring ATP consumption incubated for 3 hrs by luciferase-luciferin-coupled chemiluminescence assay
Quantity: IC50

Molecule | Endpoint result
COc1cccc(-c2cc(NC3CCCc4ccccc43)nc(C)n2)c1 (stereo not given) | > 1000 nM
CCOC(=O)CC(Nc1cc(-c2cccc(OC)c2)nc(C)n1)c1cccc(OC)c1 (stereo not given) | > 1000 nM
COc1cccc([C@H](C)Nc2cc(-c3cccc(OC(F)(F)F)c3)nc(C)n2)c1 | > 1000 nM
COC(=O)CN1CCc2ccc(-c3cc(N[C@@H]4CCCc5ccccc54)nc(C)n3)cc21 | > 1000 nM
COc1cccc([C@H](C)Nc2cc(-c3ccccc3C)nc(C)n2)c1 | > 1000 nM
COc1cccc(-c2cc(N[C@@H](C)c3cccc(C(F)(F)F)c3)nc(C)n2)c1 | > 1000 nM
C#CCOc1cccc(C(C)Nc2cc(-c3ccc4ncsc4c3)nc(C)n2)c1 (stereo not given) | 500 nM
COc1cccc(-c2cc(NC(C)c3cccc(OCC#N)c3)nc(C)n2)c1 (stereo not given) | 500 nM
COc1cccc([C@H](C)Nc2cc(-c3cccc(F)c3)nc(C)n2)c1 | 500 nM
Cc1nc(N[C@@H]2CCCc3ccccc32)cc(-c2ccc3ccccc3c2)n1 | 500 nM
Cc1nc(N[C@@H]2CCCc3ccccc32)cc(-c2cccc(CO)c2)n1 | > 1000 nM
Cc1nc(NCCCC(C)(C)CO)cc(-c2ccc3ncsc3c2)n1 | > 1000 nM
Cc1nc(NC(C)c2cccc(-c3ccsc3)c2)cc(-c2ccc3ncsc3c2)n1 (stereo not given) | > 1000 nM
CCn1ccc2ccc(-c3cc(N[C@@H](C)c4cccc(OC)c4)nc(C)n3)cc21 | > 1000 nM
CCc1ccc(-c2cc(NC(C)c3cccc(-c4cnn(C)c4)c3)nc(C)n2)cc1 (stereo not given) | 500 nM
Cc1nc(N[C@@H](C)c2cccc(-c3ccccc3)c2)cc(-c2ccc3occ(C)c3c2)n1 | 500 nM
COC(=O)CNS(=O)(=O)c1cccc(C(C)Nc2cc(-c3cccc(OC)c3)nc(C)n2)c1 (stereo not given) | > 1000 nM
Cc1nc(NC(C)c2cccc(OCc3ccn[nH]3)c2)cc(-c2ccc3ncsc3c2)n1 (stereo not given) | 500 nM
Cc1nc(N[C@@H]2CCCc3ccccc32)cc(-c2ccc3c(c2)OC(F)(F)O3)n1 | > 1000 nM
COc1cccc([C@H](C)Nc2cc(-c3cccc(OC)c3F)nc(C)n2)c1 | 500 nM
COc1cccc(-c2cc(NC(C)c3cccc(S(=O)(=O)NCC#N)c3)nc(C)n2)c1 (stereo not given) | 500 nM
Cc1nc(N[C@@H]2CCCc3ccccc32)cc(-c2cc3ccccc3s2)n1 | > 1000 nM
COc1cccc(-c2cc(NC(C)c3cccc(O)c3)nc(C)n2)c1 (stereo not given) | > 1000 nM
CCCCC(CC)CNc1cc(-c2ccc3ncsc3c2)nc(C)n1 (stereo not given) | 500 nM
Cc1nc(NC(C)c2cccc(OCC(F)(F)F)c2)cc(-c2ccc3ncsc3c2)n1 (stereo not given) | > 1000 nM
COCC(C)Nc1cc(-c2ccc3ncsc3c2)nc(C)n1 (stereo not given) | > 1000 nM
Cc1cccc(-c2cc(NC(C)c3cccc(-c4cnn(C)c4)c3)nc(C)n2)c1 (stereo not given) | 500 nM
Cc1nc(NC(C)c2cccc(-c3cnn(C)c3)c2)cc(-c2ccc(C(F)(F)F)cc2)n1 (stereo not given) | > 1000 nM
CCOC(=O)CCNC(=O)CC(Nc1cc(-c2cccc(OC)c2)nc(C)n1)c1cccc(OC)c1 (stereo not given) | > 1000 nM
Cc1ccc([C@H](C)Nc2cc(-c3ccc4ccn(C)c4c3)nc(C)n2)cc1 | 500 nM
Cc1nc(N[C@H]2CCOc3ccccc32)cc(-c2ccc3ncsc3c2)n1 | > 1000 nM
Cc1nc(NC(C)c2cccc(OCC3CCCN(C(=O)OC(C)(C)C)C3)c2)cc(-c2ccc3ncsc3c2)n1 (stereo not given) | > 1000 nM
Cc1nc(N[C@@H]2CCCc3ccccc32)cc(-c2cccc(O)c2)n1 | 500 nM
CCc1coc2ccc(-c3cc(NC(C)c4cccc(-c5cnn(C)c5)c4)nc(C)n3)cc12 (stereo not given) | > 1000 nM
COC(=O)CNc1cccc(CNc2cc(-c3cccc(OC)c3)nc(C)n2)c1 | > 1000 nM
COc1cc(-c2cc(NC(C)c3cccc(O)c3)nc(C)n2)ccc1C (stereo not given) | > 1000 nM
Cc1nc(NC(C)c2cccc(OCc3nc(C(=O)O)co3)c2)cc(-c2ccc3ncsc3c2)n1 (stereo not given) | 500 nM
Cc1nc(NC(C)c2cccc(OCc3ccccc3)c2)cc(-c2ccc3ncsc3c2)n1 (stereo not given) | > 1000 nM
COc1cccc([C@H](C)Nc2cc(-c3ccnc(C)c3)nc(C)n2)c1 | > 1000 nM
Cc1nc(NCc2cc(-c3ccccc3)no2)cc(-c2ccc3ncsc3c2)n1 | > 1000 nM
